Value source: ChEMBL document CHEMBL5247638

test system: Trypanosoma brucei; assay: Inhibition of TbrCatL using Z-FR-AMC as substrate at 100 uM by fluorimetric analysis relative to control
Binary call on inhibition: Yes from 30% upward, No beneath that.

Input: State whether the measured inhibition reaches 30%, counting equality as reaching it, for `NC(=S)N/N=C/c1cn(-c2ccc(Cl)cc2)nn1`
Output: Yes

Input: Check this compound for inhibition at or above 30%: `NC(=S)N/N=C/c1ccc(-c2ccc(Br)cc2Cl)o1`
Output: No

Input: Is reported inhibition greater than or equal to 30% here: `CN(C)CCCNCc1ccc(-c2ccc(Cl)cc2Cl)o1`
Output: Yes

Input: Does inhibition meet or surpass 30% for `OCC(CO)NCc1ccc(-c2ccc(Br)cc2Cl)o1` ?
Output: Yes

Input: Does the compound `OCC(CO)NCc1ccc(-c2ccc(Cl)c(C(F)(F)F)c2)o1` have recorded inhibition that is 30% or more?
Output: No

Input: Textbook exercise: given the entry `OCCNCc1ccc(-c2ccc(Br)cc2Cl)o1` , state whether its inhibition is greater than or equal to 30%.
Output: Yes

Input: Dear colleague, could you confirm whether `NC(=S)N/N=C/c1cn(-c2ccc(Br)cc2Cl)nn1` has inhibition at or above 30%?
Output: No

Input: Does inhibition meet or surpass 30% for `OCCNCc1ccc(-c2ccc(Cl)c(Cl)c2)o1` ?
Output: No

Input: Could you verify whether the entry `CN(C)CCCNCc1ccc(-c2ccc(Br)cc2)o1` shows inhibition of no less than 30%?
Output: Yes

Input: Is reported inhibition greater than or equal to 30% here: `N/C(S)=N/N=C/c1ccc(-c2ccc(Cl)cc2)o1`
Output: No

Input: Does the reported inhibition for `Clc1cc(Br)ccc1-c1ccc(CNCCN2CCOCC2)o1` fall at or above the 30% mark?
Output: Yes

====

target: Cruzipain (Trypanosoma cruzi); assay: Inhibition of Trypanosoma cruzi cruzain using Z-FR-AMC as substrate at 100 uM by fluorimetric analysis relative to control
Assign class by inhibition: not lower than 60% means 1; lower than 60% means -1.

Input: Would you say `CN(C)CCCNCc1ccc(-c2ccc(Cl)cc2Cl)o1` shows inhibition at minimum 60%?
Output: 1

Input: Entry `CN(C)CCCNCc1ccc(-c2ccc(Br)cc2)o1` : is its inhibition no less than 60%?
Output: 1

Input: Identify whether the reported inhibition of the following compound is 60% or greater: `NC(=S)N/N=C/c1ccc(-c2ccc(Br)cc2Cl)o1`
Output: -1

Input: Is inhibition for `N/C(S)=N/N=C/c1ccc(-c2ccc(Cl)cc2)o1` at or above 60%?
Output: -1

Input: Identify whether the reported inhibition of the following compound is 60% or greater: `OCCNCc1ccc(-c2ccc(Cl)c(Cl)c2)o1`
Output: 1

Input: Answer whether inhibition of `NC(=S)N/N=C/c1cn(-c2ccc(Br)cc2Cl)nn1` is greater than or equal to 60%.
Output: -1

Input: Item `NC(=S)N/N=C/c1cn(-c2ccc(Cl)cc2)nn1` with inhibition of 60% or above?
Output: -1

====

assay: Selectivity index, ratio of CC50 for mouse myoblasts cells to EC50 for Trypanosoma cruzi CA-I/72; type: toxicity; conditions: read-out: Ratio CC50/EC50
Please go through the items and note down their selectivity ratio.

Input: Tell us which selectivity ratio value is on record for O=C(Cn1ccnc1[N+](=O)[O-])NCc1ccccc1 [BENZNIDAZOLE]
Output: > 9

Input: Provide one value: measured selectivity ratio of `Clc1cc(Br)ccc1-c1ccc(CNCCN2CCOCC2)o1`
Output: > 17

Input: Answer with reported selectivity ratio of `NC(=S)N/N=C/c1ccc(-c2ccc(Br)cc2Cl)o1`
Output: > 370

Input: Give the reported value of selectivity ratio for this record: `NC(=S)N/N=C/c1ccc(-c2ccc(Cl)cc2)o1`
Output: > 18

====

system: Trypanosoma brucei; test: Inhibition of TbrCatL using Z-FR-AMC as substrate at 100 uM preincubated for 10 mins followed by substrate addition by fluorimetric analysis relative to control
readout-kind: inhibition (%)
Please respond with the number in % and leave the unit unwritten.

Input: For the compound `NC(=S)N/N=C/c1cn(-c2ccc(Cl)cc2)nn1` , give its reported inhibition.
Output: 91

Input: Indicate the recorded inhibition value for this compound: `N/C(S)=N/N=C/c1ccc(-c2ccc(Cl)cc2)o1`
Output: 96

Input: Specify reported inhibition for the compound shown: `NC(=S)N/N=C/c1ccc(-c2ccc(Br)cc2Cl)o1`
Output: 90

Input: Supply measured inhibition of `NC(=S)N/N=C/c1cn(-c2ccc(Br)cc2Cl)nn1` in your reply.
Output: 98

Input: Indicate its recorded inhibition; the compound in question is `OCC(CO)NCc1ccc(-c2ccc(Cl)c(C(F)(F)F)c2)o1`
Output: 51

Input: Kindly indicate its recorded inhibition. Item: `Clc1cc(Br)ccc1-c1ccc(CNCCN2CCOCC2)o1`
Output: 60

Input: For the compound `OCCNCc1ccc(-c2ccc(Br)cc2Cl)o1` , report inhibition.
Output: 67

Input: Consider the compound `OCCNCc1ccc(-c2ccc(Cl)c(Cl)c2)o1` . State its measured inhibition.
Output: 40

====

assay: Inhibition of TbrCatL using Z-FR-AMC as substrate preincubated for 10 mins followed by substrate addition in presence of 0.01% Triton by fluorimetric analysis; design: species or system Trypanosoma brucei
readout-kind: IC50 (nM)
Write the value in nM as a bare number.

Input: // Input: `N/C(S)=N/N=C/c1ccc(-c2ccc(Cl)cc2)o1` . Output its IC50 only.
Output: 40

Input: Entry `NC(=S)N/N=C/c1ccc(-c2ccc(Br)cc2Cl)o1` needs its IC50 filled in; supply it.
Output: 50

Input: Please report the measured IC50 for `NC(=S)N/N=C/c1cn(-c2ccc(Br)cc2Cl)nn1`
Output: 2000

Input: Give the value of IC50 reported for the following: `NC(=S)N/N=C/c1cn(-c2ccc(Cl)cc2)nn1`
Output: 16000

====

assay: Inhibition of TbrCatL using Z-FR-AMC as substrate preincubated for 10 mins followed by substrate addition in presence of 0.1% Triton by fluorimetric analysis; design: species or system Trypanosoma brucei
readout-kind: pIC50
Reminder that pIC50 is minus the log10 of a molar concentration.

Input: Could you please provide reported pIC50 for `NC(=S)N/N=C/c1ccc(-c2ccc(Br)cc2Cl)o1` ? Thanks!
Output: 6.15

====

tested on: Trypanosoma brucei; test: Antiparasitic activity against Trypanosoma brucei incubated for 72 hrs by SYBR Green 1 dye based fluorescence assay; type: functional, organism-based
readout-kind: EC50 (µM)
Just the number please, in µM, no unit attached.

Input: Complete the entry with EC50 for `OCC(CO)NCc1ccc(-c2ccc(Br)cc2Cl)o1`
Output: 39.5

Input: Give recorded EC50. `OCCNCc1ccc(-c2ccc(Br)cc2Cl)o1`
Output: 13

Input: Give recorded EC50. `Clc1ccc(-n2cc(CNCC3CCNCC3)nn2)cc1`
Output: 49.7

====

test system: Trypanosoma brucei; assay: Antiparasitic activity against Trypanosoma brucei incubated for 72 hrs by SYBR Green 1 dye based fluorescence assay; type: functional, organism-based
pEC50: −log10 of the molar value.
Task for the reader: assign each of the following compounds its reported pEC50.

Input: Please report the measured pEC50 for `O=C(NCCO)c1cn(-c2ccc(Br)cc2Cl)nn1` tested on Trypanosoma brucei.
Output: < 4.30

Input: State pEC50 (Trypanosoma brucei) of `N/C(S)=N/N=C/c1ccc(-c2ccc(Cl)cc2)o1` .
Output: 4.57

Input: Look up Trypanosoma brucei data: pEC50 of `OCCNCc1cn(-c2ccc(Cl)c(Cl)c2)nn1` , then report it.
Output: < 4.30

Input: Please respond with reported pEC50 (system Trypanosoma brucei) for `Clc1cc(Br)ccc1-c1ccc(CNCCN2CCOCC2)o1` .
Output: 4.61

Input: Please indicate recorded pEC50 of `NC(=S)N/N=C/c1cn(-c2ccc(Br)cc2Cl)nn1` measured with Trypanosoma brucei.
Output: < 4.30

Input: State pEC50 (Trypanosoma brucei) of `OCCNCc1cn(-c2ccc(Cl)cc2)nn1` .
Output: < 4.30

Input: Name the value of pEC50 reported for `NC(=S)N/N=C/c1cn(-c2ccc(Cl)cc2)nn1` when tested on Trypanosoma brucei.
Output: < 4.30

====

target: Cruzipain (Trypanosoma cruzi) (UniProt P25779); test: Inhibition of Trypanosoma cruzi cruzain using Z-FR-AMC as substrate at 100 uM preincubated for 10 mins followed by substrate addition by fluorimetric analysis relative to control
Sequence (P25779 123-467 limits assumed): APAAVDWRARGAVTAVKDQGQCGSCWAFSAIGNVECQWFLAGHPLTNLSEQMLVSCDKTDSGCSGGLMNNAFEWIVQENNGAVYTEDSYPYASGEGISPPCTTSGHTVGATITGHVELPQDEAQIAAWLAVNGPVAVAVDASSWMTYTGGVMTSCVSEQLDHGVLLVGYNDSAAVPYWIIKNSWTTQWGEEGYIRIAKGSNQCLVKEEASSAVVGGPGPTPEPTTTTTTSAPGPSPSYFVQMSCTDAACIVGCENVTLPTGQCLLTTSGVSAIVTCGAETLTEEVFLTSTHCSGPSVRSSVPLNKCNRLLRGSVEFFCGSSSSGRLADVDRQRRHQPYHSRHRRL
Kindly state inhibition for each of the entries shown.
# value in %; strip the unit string

Input: Lab note: record inhibition of `NC(=S)N/N=C/c1cn(-c2ccc(Cl)cc2)nn1` tested on Cruzipain (Trypanosoma cruzi) (UniProt P25779).
Output: 72

Input: Recall the reported inhibition of `NC(=S)N/N=C/c1cn(-c2ccc(Br)cc2Cl)nn1` when tested on Cruzipain (Trypanosoma cruzi) (UniProt P25779).
Output: 6

Input: Name the value of inhibition reported for `OCCNCc1ccc(-c2ccc(Cl)c(Cl)c2)o1` when tested on Cruzipain (Trypanosoma cruzi) (UniProt P25779).
Output: 55

Input: State inhibition on Cruzipain (Trypanosoma cruzi) (UniProt P25779). Entry: `NC(=S)N/N=C/c1ccc(-c2ccc(Br)cc2Cl)o1`
Output: 70

Input: Fetch value of inhibition on Cruzipain (Trypanosoma cruzi) (UniProt P25779) for `N/C(S)=N/N=C/c1ccc(-c2ccc(Cl)cc2)o1` .
Output: 94
